- ASSAYED_TARGET: mutant MGL (Homo sapiens, UniProt Q99685, L169S/L176S)
- Sequence (Q99685 1-303 L169S/L176S): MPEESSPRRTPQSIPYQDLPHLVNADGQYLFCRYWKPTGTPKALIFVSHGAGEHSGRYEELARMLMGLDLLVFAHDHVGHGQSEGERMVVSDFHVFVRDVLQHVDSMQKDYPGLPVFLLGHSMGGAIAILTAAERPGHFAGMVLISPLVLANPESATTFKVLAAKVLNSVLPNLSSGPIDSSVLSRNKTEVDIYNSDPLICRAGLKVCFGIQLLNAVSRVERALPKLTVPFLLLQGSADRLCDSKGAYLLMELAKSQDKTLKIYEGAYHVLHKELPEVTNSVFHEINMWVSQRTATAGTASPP
- PROCEDURE_SUMMARY: MGL ThermoFluor assay - mutant
- Format: binding
- SETUP_CONDITIONS: MGL mutant ThermoFluor qKd (using qNMR conc.), compound concentration measured by qNMR
pKd: −log10 of the molar value.
ENDPOINT_NAME: pKd

[[record]]
query_smiles = "C/C(=C\\c1ccc(Cl)cc1)c1c(C)c(C(=O)N2CC(N3CCN(C(=O)c4nccs4)CC3)C2)nn1-c1ccc(Cl)cc1Cl"
assayed_target = "mutant MGL (Homo sapiens, UniProt Q99685, L169S/L176S)"
measured_result = 7.40


* * *

- ASSAYED_TARGET: MGL (Rattus norvegicus, UniProt Q8R431)
- Construct: one g rat brain was homogenized using a Polytron homogenizer; from tissue; host or cells: rat brain homogenate
- Sequence (Q8R431 whole entry): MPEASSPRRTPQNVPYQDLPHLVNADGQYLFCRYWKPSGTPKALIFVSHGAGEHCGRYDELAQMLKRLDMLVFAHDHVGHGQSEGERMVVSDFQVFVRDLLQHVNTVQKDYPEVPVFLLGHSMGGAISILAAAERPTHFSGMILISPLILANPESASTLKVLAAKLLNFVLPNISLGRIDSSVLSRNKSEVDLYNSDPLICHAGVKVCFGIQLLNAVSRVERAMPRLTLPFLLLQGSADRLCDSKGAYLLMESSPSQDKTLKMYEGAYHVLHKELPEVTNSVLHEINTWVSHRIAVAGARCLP
- PROCEDURE_SUMMARY: 2-AG accumulation assay in rat brain homogenate
- Type: biochemical
- SETUP_CONDITIONS: rat brain homogenate; compound 1 μM; 2-AG accumulation as percent of vehicle; read-out: Rat Brain 2AG % VehCntrl (%) @ 1 μM
ENDPOINT_NAME: 2-AG accumulation, % of vehicle control at 1 µM (%)

[[record]]
query_smiles = "Cc1nc(COc2ccc(Cl)cc2)sc1C(=O)N1CC(N2CCN(C(=O)c3nccs3)CC2)C1"
measured_result = 591

[[record]]
query_smiles = "O=C(c1ccccc1)N1CCN(C2CN(C(=O)c3ccc(-c4ccc(C(F)(F)F)s4)cc3)C2)CC1"
measured_result = 140

[[record]]
query_smiles = "O=C(c1nccs1)N1CCN(C2CN(C(=O)c3sc4cc(F)ccc4c3Cl)C2)CC1"
measured_result = 807

[[record]]
query_smiles = "O=C(c1ccc2c(c1)CCN(C(=O)c1ccc[nH]1)C2)N1CC(N2CCN(C(=O)c3nccs3)CC2)C1"
measured_result = 367

[[record]]
query_smiles = "Cc1c(C(=O)N2CC(N3CCN(C(=O)c4nccs4)CC3)C2)n(C)c2ccc(Cl)cc12"
measured_result = 444

[[record]]
query_smiles = "O=C(c1ccc(SCc2cccnc2)cc1)N1CC(N2CCN(C(=O)c3nccs3)CC2)C1"
measured_result = 228

[[record]]
query_smiles = "O=C(c1ccc2c(c1)CCN2c1ccc(F)cc1)N1CC(N2CCN(C(=O)c3nccs3)CC2)C1"
measured_result = 722

[[record]]
query_smiles = "O=C(c1ccccc1)N1CCN(C2CN(C(=O)c3ccc(-c4ccc(F)c(Cl)c4)cc3Cl)C2)CC1"
measured_result = 130

[[record]]
query_smiles = "O=C(c1ccc2c(cnn2-c2cccc(F)c2)c1)N1CC(N2CCN(C(=O)c3nccs3)CC2)C1"
measured_result = 807

[[record]]
query_smiles = "O=C(c1ccc2c(c1)CCN(c1ccccc1)C2)N1CC(N2CCN(C(=O)c3nccs3)CC2)C1"
measured_result = 767

[[record]]
query_smiles = "O=C(c1ccc(-c2ccccc2)cc1)N1CC(N2CCN(C(=O)c3ccns3)CC2)C1"
measured_result = 141

[[record]]
query_smiles = "O=C(c1ccc2c(ccn2-c2ccc(OC(F)(F)F)cc2)c1)N1CC(N2CCN(C(=O)c3nccs3)CC2)C1"
measured_result = 874

[[record]]
query_smiles = "O=C(c1cc(-c2cccc(F)c2)c2[nH]ccc2c1)N1CC(N2CCN(C(=O)c3nccs3)CC2)C1"
measured_result = 549

[[record]]
query_smiles = "COc1ccc(C(=O)N2CC(N3CCN(C(=O)c4nccs4)CC3)C2)cc1-c1ccccc1"
measured_result = 780

[[record]]
query_smiles = "O=C(c1ccc2c(-c3ccc(C(F)(F)F)cc3)ncnc2c1)N1CC(N2CCN(C(=O)c3nccs3)CC2)C1"
measured_result = 488

[[record]]
query_smiles = "O=C(c1nccs1)N1CCN(C2CN(C(=O)c3sc4cc(F)c(C(F)(F)F)cc4c3Cl)C2)CC1"
measured_result = 816


* * *

- ASSAYED_TARGET: purified wild type MGL (wt-MGLL 6H-11-313) (Homo sapiens)
pIC50: −log10 of the molar value.
# pIC50 binned as Low = under 6, Medium = from 6 up to 7, High = 7 and over

[[record]]
compound = "Cn1c2ccccc2c2cc(C(=O)N3CC(N4CCN(C(=O)c5nccs5)CC4)C3)ccc21"
assigned_class = "Medium"

[[record]]
compound = "Cc1nc(-c2ccccc2F)sc1C(=O)N1CC(N2CCN(C(=O)c3cscn3)CC2)C1"
assigned_class = "Low"

[[record]]
compound = "O=C(c1cscn1)N1CCN(C2CN(C(=O)c3ccc(-c4cccc(C(F)(F)F)c4)cc3F)C2)CC1"
assigned_class = "High"

[[record]]
compound = "O=C(c1ccc2c(cnn2-c2ccc(C(F)(F)F)cc2)c1)N1CC(N2CCN(C(=O)c3nccs3)CC2)C1"
assigned_class = "High"

[[record]]
compound = "O=C(c1ccccc1)N1CCN(C2CN(C(=O)c3ccc4c(-c5cccc(C(F)(F)F)c5)c[nH]c4c3)C2)CC1"
assigned_class = "High"

[[record]]
compound = "CCCc1ccc(C(=O)N2CC(N3CCN(C(=O)c4nccs4)CC3)C2)cc1"
assigned_class = "High"

[[record]]
compound = "O=C(c1ccc(-c2nc(-c3cccc(C(F)(F)F)c3)cs2)cc1)N1CC(N2CCN(C(=O)c3nccs3)CC2)C1"
assigned_class = "High"

[[record]]
compound = "Cn1cc(-c2cccc(C(F)(F)F)c2)c2ccc(C(=O)N3CC(N4CCN(C(=O)c5cscn5)CC4)C3)cc21"
assigned_class = "High"

[[record]]
compound = "O=C(c1cc2ccc(C(F)(F)F)nc2o1)N1CCN(C2CN(C(=O)c3nccs3)C2)CC1"
assigned_class = "Low"

[[record]]
compound = "O=C(c1ccc2c(c1)CCN(C(=O)c1cccs1)C2)N1CC(N2CCN(C(=O)c3nccs3)CC2)C1"
assigned_class = "High"

[[record]]
compound = "O=C(c1ccc2c(cnn2-c2cccc(C(F)(F)F)c2)c1)N1CC(N2CCN(C(=O)c3nccs3)CC2)C1"
assigned_class = "High"

[[record]]
compound = "O=C(c1ccccc1)N1CCN(C2CN(C(=O)c3ccc(Cc4ccc(C(F)(F)F)cc4)cc3)C2)CC1"
assigned_class = "High"

[[record]]
compound = "O=C(c1ccc(Cc2cccc(C(F)(F)F)c2)cc1)N1CC(N2CCN(C(=O)c3nccs3)CC2)C1"
assigned_class = "High"

[[record]]
compound = "O=C(c1ccc(C(F)c2ccc(C(F)(F)F)cc2)cc1)N1CC(N2CCN(C(=O)c3nccs3)CC2)C1 (stereo not shown)"
assigned_class = "High"

[[record]]
compound = "O=C(c1ccc(-c2ccccc2)cc1)N1CCN(C2CN(C(=O)c3nccs3)C2)CC1"
assigned_class = "Medium"

[[record]]
compound = "O=C(c1ccc2c(c1)CCN2)N1CC(N2CCN(C(=O)c3nccs3)CC2)C1"
assigned_class = "Low"

[[record]]
compound = "O=C(c1ccc(Oc2ncc(C(F)(F)F)cc2Cl)cc1)N1CC(N2CCN(C(=O)c3cscn3)CC2)C1"
assigned_class = "Medium"

[[record]]
compound = "O=C(c1cccc(C(F)(F)F)c1)N1CCc2cc(C(=O)N3CC(N4CCN(C(=O)c5nccs5)CC4)C3)ccc2C1"
assigned_class = "High"

[[record]]
compound = "O=C(c1ccc2c(c1)CCN(Cc1ccc(C(F)(F)F)cc1)C2)N1CC(N2CCN(C(=O)c3nccs3)CC2)C1"
assigned_class = "High"

[[record]]
compound = "O=C(c1ccc2c(c1)CCN(C(=O)C1CCC(F)(F)CC1)C2)N1CC(N2CCN(C(=O)c3nccs3)CC2)C1"
assigned_class = "Medium"

[[record]]
compound = "O=C(c1cccc(-c2ccc(C(F)(F)F)cc2)c1)N1CC(N2CCN(C(=O)c3cscn3)CC2)C1"
assigned_class = "Low"

[[record]]
compound = "O=C(c1ccccc1)N1CC(N2CCN(C(=O)c3ccc(-c4ccccc4)cc3)CC23CC3)C1"
assigned_class = "Low"

[[record]]
compound = "O=C(c1ccc(-c2ccccc2)cc1)N1CCN(C2CN(C(=O)c3cscn3)C2)C2(CC2)C1"
assigned_class = "Low"

[[record]]
compound = "O=C(c1ccc2nc(C(F)(F)F)cc(Cl)c2c1)N1CC(N2CCN(C(=O)c3cscn3)CC2)C1"
assigned_class = "Low"


These data points were gathered from patent US8362000B2.
